TARGET_OR_TEST_SYSTEM: T1, Redβ (single-strand annealing protein) (bacteriophage lambda, UniProt P03698 1-261)
T1 sequence: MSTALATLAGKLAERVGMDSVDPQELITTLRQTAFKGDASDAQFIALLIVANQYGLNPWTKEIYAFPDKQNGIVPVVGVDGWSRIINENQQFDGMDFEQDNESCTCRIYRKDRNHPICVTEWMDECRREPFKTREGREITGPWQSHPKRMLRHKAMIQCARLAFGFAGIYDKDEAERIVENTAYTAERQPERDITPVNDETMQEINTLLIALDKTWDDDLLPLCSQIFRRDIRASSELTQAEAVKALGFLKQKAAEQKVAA
ASSAY_REMARKS: FCS/FCCS; effective KEpstein for 30-b ssDNA, calculated as Kd/21; Buffer composition not in the material; optical tweezers at 29.2 °C
EXPERIMENTAL_SETUP: protein: recombinant; tags: StrepII (stated for the purified protein used as western blot standard); label: Atto 655 (5')
pKd: −log10 of the molar value.
PROPERTY: pKd

// query pKd value for entry ATGCCTCTCACTCGTCATCTTGTTTAGTAT (ssDNA) [ssDNA FCS 30 b] ~6.62
